Answer each item with its documented TGI.
Test system: NCI-H23 lung
TEST_SUMMARY: NCI tumour cell line growth inhibition, 48 h

Provide the reported TGI of each entry below, same order.
1. C=C1C(=O)C2(C)OC2(C)C1C(=O)O (stereo unspecified)
2. COC(=O)/C=C1\CCCN1CCc1cc2c(cc1CC#N)OCO2
3. CCCCCC1=C2C(c3ccc(OC)cc3)=C(N)C(c3ccc(OC)cc3)=C3NC(=O)C(C=C1)C32 (stereo unspecified)
4. CC1COCCN1CC#CCOC(=O)c1cc2ccccc2oc1=O (stereo unspecified)

> 100 µM
> 100 µM
> 100 µM
> 100 µM

Answer for every listed entry: what is its TGI? The entries follow.
1. COc1cc(NC(=O)c2ccccc2Nc2ccnc(C(F)(F)F)c2)cc(OC)c1OC
2. c1c2c(cc3c1OCO3)-c1cc3ccc4c(c3c[n+]1CC2)OCO4

> 100 µM
> 12.5 µM

----------
System: MOLT-4 leukemia
TEST_SUMMARY: NCI tumour cell line growth inhibition, 48 h
Exercise: for every item that follows, state its recorded TGI.

As a guide, the following entries are already answered.
N#C/C(C(=O)Nc1ccc(Cl)cc1)=C(/N)N1CCOCC1 ... > 100 µM
CCN(CCO)CCCOc1ccc2c(Nc3cc(CC(=O)Nc4cccc(F)c4)[nH]n3)ncnc2c1 ... > 88.4 µM
COC(CC1(OC)OC(=O)C=C1N)OC (stereo not drawn) ... > 100 µM
O=C(O)c1nc2ccccc2nc1NCc1ccc(F)cc1 ... > 100 µM
COc1c(C)c(O)c2c(c1C)OC(c1ccccc1)CC2=O (stereo not drawn) ... > 100 µM
Cn1cc(C2=C(c3c(S(C)=O)n(C)c4ccccc34)C(=O)NC2=O)c2ccccc21 (stereo not drawn) ... > 25 µM
CCCCCCSc1nc(COC(=O)NC)c(COC(=O)NC)n1C ... > 100 µM

Please find the next molecule below.
Please state recorded TGI (tested on MOLT-4 leukemia) of CSc1ccc(/C=C2\N=C(c3ccccc3)N(/N=C3\C(=O)Nc4ccccc43)C2=O)cc1
> 100 µM

----------
Exercise: state measured TGI for each of the molecules provided.
Test system: HT29 colon
TEST_SUMMARY: NCI tumour cell line growth inhibition, 48 h
*1 amine or outer side, *2 acyl side, *3 side chain or, on linkers, in order; H or OH if unused. Where a SMILES comes first, the peptide text is derived from it. The star is where a group is joined. γGlu = O=C(O)[CH](CCC(=O)[*:2])N[*:1]; NHOH = ON*

A selection of reference data follows.
COC(=O)C(/C(=N/N)C(=O)Nc1cccc(O)c1)c1nc2ccccc2[nH]c1=O (stereo unspecified) ... > 100 µM
CCOC(=O)CNC(=O)C(CCC(=O)NO)NC(=O)CCC(N)C(=O)O (stereo unspecified) (γGlu-Glu(NHOH)-Gly-OEt; configuration not given here) ... > 100 µM
CC1(C)CC(N2CCN(C3CC(C)(C)NC(C)(C)C3)CC2)CC(C)(C)N1 ... > 100 µM
O=C(CSc1nc2ccc(I)cc2c(=O)n1Cc1ccccc1)NN1C(=O)c2ccccc2C1=O ... > 100 µM
COc1c(C)c(O)c2c(c1C)OC(c1ccccc1)CC2=O (stereo unspecified) ... > 100 µM
CCCCCCCN(CCCCCCC)CC(O)c1cc2ccccc2c2cc(Br)ccc12 (stereo unspecified) ... > 100 µM
CS(=O)(=O)N1CCc2c(-c3cnc(N)nc3)nc(N3CCOCC3)nc21 ... > 77.5 µM
Nc1c(Br)cc(-c2nc3ccccc3s2)cc1Br ... > 100 µM
N#C/C(C(=O)Nc1ccc(Cl)cc1)=C(/N)N1CCOCC1 ... > 100 µM
CCOC(=O)CC(NCc1ccc(N=Cc2nc3ccc(C(F)(F)F)cc3nc2-c2ccccc2)cc1)C(=O)OCC (stereo unspecified) ... > 100 µM

Dear colleague, could you send me TGI for each of the items below? Thanks.
1. Cc1cc(C#Cc2ccccc2)ccc1-n1c(/C=C/c2cc(O)ccc2O)nc2ccccc2c1=O
2. COc1ccc2nc3cc(Cl)ccc3c(Nc3cc(C(C)C)c(O)cc3C)c2c1
3. COc1cccc(/C=C\c2ccnc3ccccc23)c1

1. 4.19 µM
2. 6.07 µM
3. > 10 µM

----------
Test system: T-47D breast
TEST_SUMMARY: NCI tumour cell line growth inhibition, 48 h
PROPERTY_LABEL: TGI

As a guide, the following entries are already answered.
COC(=O)c1ccccc1C1=C([N+](=O)[O-])C(c2cccc(Br)c2)C(C#N)=C(N)O1 (stereo unspecified) ... 84.6 µM
COC(=O)C1(C)CCCC2(C)c3cc(OC)ccc3C(=O)C(Br)C12 (stereo unspecified) ... > 10 µM
COC(=O)N/N=C(/c1nc2ccc([N+](=O)[O-])cc2[nH]c1=O)C(O)c1ccc(OC)c(OC)c1 (stereo unspecified) ... > 100 µM
COc1ccc(/C=C2\N=C(c3ccccc3)OC2=O)cc1OC(C)=O ... > 100 µM
COc1cc2c(cc1OC)C(=O)/C(=C/c1cc(Cl)cc(Cl)c1)C2 ... > 100 µM

The record that follows has no TGI shown yet.
Requested read-out: TGI. Entry: CCc1ccc(/C=C/C(=O)C2CN(CC)CCC2(O)/C=C/c2ccc(CC)cc2)cc1 (stereo unspecified)
10.1 µM

----------
Tested on: SF-539 CNS
TEST_SUMMARY: NCI tumour cell line growth inhibition, 48 h
Would you kindly list GI50 for each of these compounds?

CN1CCN(c2ccc(Nc3ncc4cc5n(c4n3)C3(CCCCC3)CNC5=O)nc2)CC1 ... 2.29 µM
CNCCN(C)Cc1cn[nH]c1-c1ccc(OC2CC(OCCC3CCOCC3)C2)cc1 (centres undefined) ... > 100 µM
COc1cc(-c2nn(-c3cccc(NC(=O)CCN4CCN(C)CC4)c3)cc2-c2ccncc2)ccc1Cl ... 1.55 µM

Hello, I would appreciate it if you could give GI50 for each entry below.
1. Cc1cc(C#Cc2ccccc2)ccc1-n1c(/C=C/c2cc(O)ccc2O)nc2ccccc2c1=O
2. COC(=O)[C@]12CC[C@@H](C)[C@H](C)[C@@H]1C1=CC[C@@H]3[C@@]4(C)CC(=O)[C@H](O)[C@@](C)(CO)[C@@H]4C(=O)C[C@@]3(C)[C@]1(C)CC2

["1.6 µM", "16.2 µM"]

Working through the 4 compounds below one at a time, give GI50 for each.
1. O=C1N=C(Nc2nc(-c3csc(NC4=NC(=O)/C(=C\c5ccc(Cl)cc5)S4)n3)cs2)S/C1=C/c1ccc(Cl)cc1
2. OCc1ccc(N(Cc2ccc(F)cc2)CC2CCC2)cc1Cl
3. COc1ccc2c(c1)C(=O)c1c-2c(N2CCN(C(=O)CCNCCNCCO)CC2)nc2ccccc12
4. CC(=O)C(C=O)C(C)=O.CC(=O)CC(C)=O.CC(=O)CC(C)=O.[Ru]

15.4 µM
16.3 µM
14.5 µM
3.8 µM
